pIC50 values by entry
targetOfAssay: HLA-DQ molecule DQB1*0602 (human)
methodDescription: inhibition of radiolabeled peptide binding to purified HLA-DQ
pIC50: −log10 of the molar value.
parameter: pIC50

• NMNIKLKMPLYVAGH [Cup s 1 (96-110) peptide NMNIKLKMPLYVAGH] = 4.84
• ERSLWIIFSKNLNIK [Cha o 1 (86-100) peptide ERSLWIIFSKNLNIK] = 6.36
• EDTNIYNSNEAFKVE [Cup a 1 (316-330) peptide EDTNIYNSNEAFKVE] = 5.08
• NLNIKLNMPLYIAGN [Cha o 1 (96-110) peptide NLNIKLNMPLYIAGN] = 5.54
• IIFSQNMNIKLKMPL [Cup s 1 (91-105) peptide IIFSQNMNIKLKMPL] = 5.73
• PARLFKAFVLDSDNL [Que a 1 (16-30) peptide PARLFKAFVLDSDNL] = 5.58
• NLALSIKYNKEGDSM [Dac g 2 (16-30) peptide NLALSIKYNKEGDSM] = 6.59
